Ref: patent US20260174875A1

Target: T1, human GIP receptor (human, UniProt P48546 22-466)
T1 sequence (looked up): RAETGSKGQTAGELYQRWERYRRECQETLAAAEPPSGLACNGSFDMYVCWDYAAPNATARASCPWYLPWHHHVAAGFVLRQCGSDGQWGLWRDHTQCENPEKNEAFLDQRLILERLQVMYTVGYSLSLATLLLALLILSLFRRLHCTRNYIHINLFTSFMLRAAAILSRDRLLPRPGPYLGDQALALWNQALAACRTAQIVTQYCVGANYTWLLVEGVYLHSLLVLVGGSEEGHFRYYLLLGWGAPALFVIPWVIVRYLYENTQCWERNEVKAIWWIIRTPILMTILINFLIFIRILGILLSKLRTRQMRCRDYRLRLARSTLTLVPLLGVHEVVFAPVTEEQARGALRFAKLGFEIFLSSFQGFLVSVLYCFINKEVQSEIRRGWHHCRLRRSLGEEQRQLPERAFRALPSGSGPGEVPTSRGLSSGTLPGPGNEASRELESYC
Assay: cell-based or functional assay
Numbered stars: 1 amine (or outer) side, 2 acyl side, 3 side chain; on linkers, the order of the positions; unused ones are H or OH. Square brackets hold non-standard residues; d marks the D form. Side chains are listed from the residue outwards. * marks the point of attachment. C20 diacid = O=C(O)CCCCCCCCCCCCCCCCCCC(=O)*; C18 diacid = O=C(O)CCCCCCCCCCCCCCCCC(=O)*; γGlu = O=C(O)[C@H](CCC(=O)[*:2])N[*:1]; Chem. 28 = not defined here; AEEA = NCCOCCOCC(=O)O; Aib = CC(C)(N)C(=O)O
ASSAY_METRIC: hGIPR Potency, 1% HSA, EC50 [pM]
Provide a numeric answer, followed by its unit.

Answered examples (3):
| BINDER | ASSAY_METRIC | RESULT |
| --- | --- | --- |
| Compound 76 (peptide) peptide: Y[Aib]EGTFTSDYSILLEEQAAREFIEWLLAGGPSSGAGQAPGQAPGASHLSTAQTQRLSAELHRLATLPK([AEEA-AEEA-γGlu-C20 diacid])TETGSGSP-NH2 | hGIPR Potency, 1% HSA, EC50 [pM] | 11.1 pM |
| Compound 82 (peptide) peptide: H[Aib]HGTFTSDYSILLEEQAAREFIEWLLAGGPSSGEASHLSTAQTQRLSAK([AEEA-AEEA-γGlu-C18 diacid])LHRLATLPRTETGSGSP-NH2 | hGIPR Potency, 1% HSA, EC50 [pM] | 19.1 pM |
| Compound 98 (peptide) peptide: Y[Aib]EGTFTSDYSILLEEQAAREFIEWLLAGGPSSGAGQAPGQAPLASHLSTAQTARLSAELHK([AEEA-AEEA-γGlu-C18 diacid])LATLPRTETGSGSP-NH2 | hGIPR Potency, 1% HSA, EC50 [pM] | 11.2 pM |

Consider the record given below.
Param item = Compound 102 (reading uncertain) peptide: Y[Aib]EGTFTSDYSILLEEQAAREFIEWLLAGGPSSGAGQAPGQAPGASHLSTAQTQRLSAELHQLK(Chem. 28)TLPRTETGSGSP-NH2 ; retrieve measured hGIPR Potency, 1% HSA, EC50 [pM]. 12.2 pM
